- System Name: T1, human mpl receptor (human, UniProt P40238 26-635)
- T1 sequence (looked up): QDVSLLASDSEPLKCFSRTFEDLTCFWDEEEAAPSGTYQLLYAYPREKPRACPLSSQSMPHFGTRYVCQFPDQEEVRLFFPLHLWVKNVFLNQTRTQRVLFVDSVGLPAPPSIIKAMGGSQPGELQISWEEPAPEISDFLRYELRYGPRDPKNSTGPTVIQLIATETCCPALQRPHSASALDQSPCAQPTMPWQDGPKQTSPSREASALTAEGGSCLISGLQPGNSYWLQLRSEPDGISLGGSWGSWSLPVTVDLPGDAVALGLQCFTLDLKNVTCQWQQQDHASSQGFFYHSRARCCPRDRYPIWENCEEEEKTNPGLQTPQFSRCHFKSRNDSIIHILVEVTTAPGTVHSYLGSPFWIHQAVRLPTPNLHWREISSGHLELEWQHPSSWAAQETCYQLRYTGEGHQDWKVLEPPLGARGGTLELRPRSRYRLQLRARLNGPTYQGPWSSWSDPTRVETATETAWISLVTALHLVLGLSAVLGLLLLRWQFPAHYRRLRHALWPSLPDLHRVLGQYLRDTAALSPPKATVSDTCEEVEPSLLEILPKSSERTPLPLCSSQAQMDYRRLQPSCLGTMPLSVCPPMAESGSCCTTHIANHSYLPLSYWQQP
- Assay Protocol: cell-based or functional assay
Quantity: EC50 on 32Dcl23/Mpl (pM)
Write the number in pM without appending the unit.

[in] So what does the record say about EC50 on 32Dcl23/Mpl for Fc-Loop (Asym) (SEQ ID NO: 5) (Fc fusion) MDKTHTCPPCPAPELLGGPSVFLFPPKPKDTLMISRTPEVTCVVVDVSHEDPEVKFNWYVDGVEVHNAKTKPREEQYNSTYRVVSVLTVLHQDWLNGKEYKCKVSNKALPAPIEKTISKAKGQPREPQVYTLPPSRDELGGGGQGCSSGGPTLREWQQCVRMQHSGGTKNQVSLTCLVKGFYPSDIAVEWESNGQPENNYKTTPPVLDSDGSFFLYSKLTVDKSRWQQGNVFSCSVMHEALHNHYTQKSLSLSPGK ?
[out] 6

[in] So what does the record say about EC50 on 32Dcl23/Mpl for Fc-Loop (Sym) (SEQ ID NO: 5) (Fc fusion) MDKTHTCPPCPAPELLGGPSVFLFPPKPKDTLMISRTPEVTCVVVDVSHEDPEVKFNWYVDGVEVHNAKTKPREEQYNSTYRVVSVLTVLHQDWLNGKEYKCKVSNKALPAPIEKTISKAKGQPREPQVYTLPPSRDELGGQGCSSGGPTLREWQQCVRMQHSGGTKNQVSLTCLVKGFYPSDIAVEWESNGQPENNYKTTPPVLDSDGSFFLYSKLTVDKSRWQQGNVFSCSVMHEALHNHYTQKSLSLSPGK ?
[out] 10

Where do the numbers come from? From patent US20120253009A1.
